System: IGROV1 ovarian
Test: NCI-60 one-dose screen, 48 h
Details: 10 µM unless noted
Compounds without any hit were thinned out: in the full panel of roughly 83,000, 20% have a hit. Active and inactive are the calls of the source. Rule for the calls: active = growth percent below 10; inactive = the rest.
Return exactly one item of active, inactive

CC[C@]12C=CCN3CC[C@@]4(c5cc(NC(=O)CCC(=O)O[C@H]6CC[C@H]7[C@@H]8CC[C@H]9CC(=O)CC[C@]9(C)[C@H]8CC[C@]67C)c(OC)cc5N(C)[C@H]4[C@@](O)(C(=O)OC)[C@@H]1OC(C)=O)[C@@H]32 | inactive
COc1cccc(C(=O)OCCn2nc3c4c(cccc42)C(=O)c2ccccc2-3)c1O | inactive
Cc1cc(C)n(-c2nc(-c3cccs3)c(C#N)c(=O)[nH]2)n1 | inactive
C=C1C(=O)O[C@H]2[C@H]1CC/C(COC(=O)c1cccnc1N)=C\CC[C@@]1(C)O[C@@H]21 | inactive
O=C(CCc1nnco1)c1nc2ccc([N+](=O)[O-])cc2[nH]1 | inactive
Nc1n[nH]c2cccc(C#Cc3cccc(NC(=O)c4cc(N5CCOCC5)cc(C(F)(F)F)c4)c3)c12 | active
CCOC(=O)c1c(C)nc2c(c1N)/C(=C/c1cccs1)C(=O)N2Cc1ccccc1 | inactive

Read the next record carefully.
Query: Recorded test outcome, item COc1ccc(/C=C(/C(=O)N2CCCC2)c2cc(OC)c(OC)c(OC)c2)cc1
Result: inactive
